- Tested on: Pyrenophora teres
- assay method text: In vivo preventive test on Pyrenophora teres (net blotch on barley)
- assay context: dose of 500 ppm; preventive spray on barley plants; grading 14 days after contamination vs control plants
Let's look at some compounds and their measured Eff. %.
Please state the figure in %; there is no need to write the unit.

Take a look at these entries with their results.
>>> print(df.to_string())
                                   compound  unit_of_measure  value_observed
0  Cn1nc(C(F)F)c(C(=O)Nc2cccc3c2CC(C)(C)CC3)c1F [Example 13]                %              75
1  CC1CCc2c(NC(=O)c3c(C(F)F)nn(C)c3F)cccc2C1C (centres unmarked) [Example 8]                %              71
2  C=C1c2cccc(NC(=O)c3c(C(F)F)nn(C)c3F)c2CCC1(C)C [Example 6]                %              80
3  Cn1nc(C(F)F)c(C(=O)Nc2cccc3c2CCC(C)(C)C3)c1F [Example 22]                %              70

Query CC1c2cccc(NC(=O)c3c(C(F)F)nn(C)c3F)c2CCC1(C)C (racemic) [Example 12] yields Eff. % of 81

The reported Eff. % of the compound CCON=C1CCCc2c(NC(=O)c3c(C(F)F)nn(C)c3F)cccc21 [Example 18] was 92

Sure, the documented Eff. % for Cn1nc(C(F)F)c(C(=O)Nc2cccc3c2CC(C)(C)CC3)c1Cl [Example 14] is 97

Form: compound = CCON=C1CCCc2c(NC(=O)c3c(C(F)F)nn(C)c3Cl)cccc21 [Example 21] ; Eff. % = 75

Provenance of the data: patent US9204646B2
